assay: soluble on expression in E. coli; label from the status in PepcDB or PDB records
assayReadout: soluble on expression in E. coli

• MTVKAMALNTNQLFAYLNRGDIAEFKFSPLFTTLFFPNVATFSTQNIMLDTLDIEEVTMSAFCSPMVGSQVQRDKGYETSTIKPGYMKPKHEIDPTKTIMRMAGEDPAQLNDPTYRRMRLITGNMRRQINAIKARVEWLAVNAVTTGKNIIEGEGIERYEIDWKIPEKNIIEQADGKKWSEQDKETHYPIYDIELYADQAGCPANVMIMGAEVWRTLRSFKKFRELYDLSRGSESAAELACKNLGEVVSFKGYLGDLALIVYSGKYTDSDGTEKYFLEPDLLVLGNTNNKGLVAYGAIMDQEAVRTGATQNMFYPKNWIEDGDPAIEYVQTHSAPQPVPADIRKFVTVKIA = soluble
• GMGQRSDSDHVMAEATTDKRQGHTRGRTGNDRRTQIIKVATELFREKGYYATSLDDIADRIGFTKPAIYYYFKSKEDVLFAIVNSIVDEALERFHAIAAGPGSPGERIHALLVEHTRTILRNLDANTLFYNERGLLSPEREREMRKREREYTEIMQRLYAEGVATGELLDVDPTVATATLLGAAIWTYRWYDPEGRLSADEVVEQITRLLLNGYRRPA = soluble

* * *

assay: soluble on expression in E. coli; label from the status in PepcDB or PDB records
assayReadout: soluble on expression in E. coli

Consider the following illustrative entries.
- LKFPKVAVVGSRACSKQGAKSVEKVIQGLENELVIVSGLAKGIDTAAHMAALQNGGKTIAVIGTGLDVFYPKANKRLQDYIGNDHLVLSEYGPGEQPLKFHFPARNRIIAGLCRGVIVAEAKMRSGSLITCERAMEEGRDVFAIPGSILDGLSDGCHHLIQEGAKLVTSGQDVLAEFEF: not soluble
- MSLQLLAPGANTALANAHCSWNLESGTSSVFGEYAAVALLAVNEKRQPMGDPALLHQEQSWMEWSGGPQDVGCTLKLDRLPAGSDRVLLMVYVYAAMGPIRDFASLRLKVDANIEHRLDLRDNGEAAIIIGEFYKRNDQWKFRALSEGSAYGLSAFGRKIGLEVDDRHPRRPSGGSGGPAGGPRHESATGTAFVVGPAHVMTCAHVIEDMGVFYINSLEGRYKAEAVVIDRRNDIALLRVQGAPPLSAVTFREGQGCEPGDTVAVLGYPLASISGGGLQVTQGGISGLFGLHNDASLFQFTAPIQPGSSGSPLFDNGGAVIGMVTSTVPDGQNMNFAVKSALLMSFLQACRIDAPHARAERSYTTTEISRTFQSSLWLVEASREGHHHHHH: soluble
- MAHHHHHHMSLADPHPLEAATTPASSLSNSIRLALLPASMKLPRDKSSSPELLAVFLPPDFCCMSVKSSTQNSSLFSSGISTVSPGRGCSVMEWRAIMQPVLLSLFKHWSVAAIRPGLFRRFCVGDVLFARERKLANSTPSAPCVNFPHRSTRVGAPRALRADCSSSSSSCKERKRHEWQDSRASESQEASPLLETSLPLLLWSSG: soluble
- MAGDPMSLKSYSTPTYWQRVKVACQYLFPQLPITRLAGWLAEQKWGMVTHFIIRIFAKQYNVNLAEAEKTNPADYTTFNEFFLRPLKENARPINQDDQAVCLPADGKISELGQINENRLLQAKGHYFTLETLLANDEEMAESFKNGSFITTYLSPRDYHRVHMPCDATLKKMIYVPGDLFSVNSFLAEHIPNLFARNERVICEFETAFGPMVQILVGATITASISTVWAGIINPPRSKDVVEYNYQTTGETAIHLKKGDEMGAFRLGSTVINLFPQATVELVSHLQAGVETRMGERFAKIIKLEHHHHHH: soluble
- MSLMGYKNNRVGYQKELLTSRAVIKKDNYAIIPHDGLVQNAVPGFENVDISILGSPKLGATFVDYIATFHKNGQQTTGFGGDGIQTLVYVIDGRLRVSDGQETHELEAGGYAYFTPEMKMYLANAQEADTEVFLYKKRYQPLAGHQPYKVVGSIHDQQPEEYEGMTDVLLWSLLPKEFDFDMNMHILSFEPGASHAYIETHVQEHGAYLISGQGMYNLDNEWYPVEKGDYIFMSAYVPQAAYAVGREEPLMYVYSKDANREPELEGGSHHHHHH: soluble

For each of the sequences below, state soluble on expression in E. coli.
1. MSLALEVNMLTGGPTGTYIQIGRDIAKAASACGIEMTVHESAGSLENFLGVRQRPRTQFGIVQSDVLEYLKTFAADDPEVSRAIFGVRIAFPLYDEEVHLLARREIGSLKDLDGKRVSIGVENSGTFLTASLVLDLAEVAPGERRMMNQDDSLKALLAGDIDAFFYVAGAPAKIFASPEIDGERFHLVPVAEEVLRQVYKPTQIPAGSYPFQTGPVDAIAVKAVLMTYGYDPKRNAYHRESCKAVSDIAHVVSTHFPELQQSGHPKWKQVNLTDLPAGWDIGECVNAGLEPGYRLPCDPPEPAVAAPADASAESEANRAYRRQICAVVGEGHHHHHH
2. MGSDKIHHHHHHMTQVPPSASPADLLAVLERIATALERQGAPAVPANSLDGADAFVWHAAESWLEPVCRVNRVDIALLQGIERQRQTLYDNTLRFAHGLPANNALLWGARGTGKSSLVKAVHASVNQALTAKGAAPVALVEIHREDIPTLPRLLRILAASGRPCLLFCDDLSFDGNDSSYKSLKAVLEGGIEGRPDTVIFYATSNRRHLLAREMVENEQSTALHAGEAVEEKVSLSDRFGLWLGFHNVDQPTYFDIVDGYARAYGLDIETEDLHREAREWSMARGSRSGRTAWQFIQDLAGRLGKTLE
3. MGSDKIHHHHHHMFVEACGRLVLIRKIYGLVKVFMVKKTIRYMRISLMLTNDAIFTTRLQKGGALLDDMRQLVCQWTEAVAKPESQAGEILHKATRSRVADTYRRAFLPRFLKGSPQDAWKLARALEEAHPSIEIIRPFYYWITARAEPILYAYVTEELVEKAKTSDRAVRTEETASWINNTLRSCGRVWSPTVQLKVARGILAALRDFAILEGAVNKRLVHGHLPIETFCLIAFLLNLMGIGARELVEHSDWKLFLLAGPEVERLFFEAHQHGWLHYQAAGRVHRIEFPTNDFKDYIRVIFGTES
4. MSLQTIKIGLPVPLSGPYGAEAQDQVRNAELAVKQFNDAGGLDGRKAQLLVRDDRLNPAEAATRALELIEKDGVNFIVGGLSAATQLSINNVTRQRKKLYISISQSDAINEAADASPYTFHEALNPHMTTQAVGKYVFKPGMRVAFLTADYAYGHEMTRGFTEVARQQGAEVVGEVKHPLGASDYSAFLPRLKALNPDVLVFNNFGADNRISIKQAADFGMKRNIRFVTPILTYTARVSGGAATYQDVVGGTQYYWAIQDSVPSAKAFNAAFQAENNGRFPSDYGAMAYSAVKSLLLAVRDAGSTDTDEVAAALRKLKYDTYKGAQYYRGCDQQSVQSVLVIQSVGKDNAHPDEVFKLLHTEAPSEGHHHHHH

["soluble", "not soluble", "not soluble", "soluble"]

For MSLESLFQHIIFTEHQAEESRRLMREVRSEITRCREKIKKATEELNEEKIKLESKVQQFFEKSFFLQLLKAHENALEKQYSEITNHRNMLLQTFEAIKKQMIEEEDKFIKEITDFNNDYEITKKRELLMKENVKIEISDLENQANMLKSEMKSMEHDSSQLNELQKQKSELIQELFTLQRKLKVFEDEENESICTTKYLEAEKIKISEKPQNDTECLRLKKELELYKEDDMESVYEALQTEIEFLELTLAQKDLQESK , what is its reported soluble on expression in E. coli?
not soluble
